System: Human melanoma A375
Measurement Description: Cell proliferative activity (MTT / cck-8)
Assay type: cell-based
Run Conditions: A-375, incubated for 96 hours, read-out: Half-Inhibitory Concentration IC50 Human melanoma A375
Each item that follows carries a reported IC50.

# example entries with known answers
[[record]]
item_smiles = "Cc1nc(N(C)c2ccc(OCC(=O)NO)cc2)c2ccccc2n1"
endpoint_result = "> 1000 nM"

[[record]]
item_smiles = "Cc1nc(N(C)c2ccc(Oc3ccc(C(=O)NO)cn3)cc2)c2ccccc2n1"
endpoint_result = "100 to 1000 nM"

[[record]]
item_smiles = "Cc1nc(N(C)c2cccc(OCC(=O)NO)c2)c2ccccc2n1"
endpoint_result = "> 1000 nM"


For this compound ( Cc1nc(N(C)c2ccc(Oc3ccc(C(=O)NO)cc3)cc2)c2ccccc2n1 ), measured IC50 is 100 to 1000 nM

For this compound ( CN(c1ccc(OCCCCC(=O)NO)cc1)c1ncnc2ccccc12 ), measured IC50 is > 1000 nM

For this compound ( COc1ccc(N(C)c2nc(C)nc3ccccc23)cc1OCCCCCC(=O)NO ), measured IC50 is 100 to 1000 nM

For this compound ( Cc1nc(N(C)c2ccc(OCc3ccc(C(=O)NO)cc3)cc2)c2ccccc2n1 ), measured IC50 is > 1000 nM

For this compound ( Cc1nc(N(C)c2ccc(OCCCCCC(=O)NO)cc2)c2ccccc2n1 ), measured IC50 is > 1000 nM

For this compound ( CN(c1ccc(Oc2ccc(C(=O)NO)cn2)cc1)c1ncnc2ccccc12 ), measured IC50 is 100 to 1000 nM

For this compound ( CN(c1ccc(OCCCC(=O)NO)cc1)c1ncnc2ccccc12 ), measured IC50 is 100 to 1000 nM

For this compound ( CCCCCN(c1ccc(OC)c(OCCCC(=O)NO)c1)c1nc(C)nc2ccccc12 ), measured IC50 is 100 to 1000 nM

###

System Tested: HDAC8 (Homo sapiens, UniProt Q9BY41)
Sequence (Q9BY41 1-377): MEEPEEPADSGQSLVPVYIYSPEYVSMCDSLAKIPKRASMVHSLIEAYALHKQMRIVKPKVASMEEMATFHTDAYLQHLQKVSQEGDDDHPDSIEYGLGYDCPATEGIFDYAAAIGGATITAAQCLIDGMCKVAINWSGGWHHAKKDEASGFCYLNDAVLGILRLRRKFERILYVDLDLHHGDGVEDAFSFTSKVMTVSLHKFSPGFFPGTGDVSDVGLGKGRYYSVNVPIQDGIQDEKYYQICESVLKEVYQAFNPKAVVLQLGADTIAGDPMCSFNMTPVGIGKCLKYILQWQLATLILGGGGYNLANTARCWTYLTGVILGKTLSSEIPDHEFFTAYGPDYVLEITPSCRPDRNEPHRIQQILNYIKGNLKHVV
Measurement Description: HDAC inhibitory activity, fluorescence-coupled acetylated peptide substrate assay
Run Conditions: read-out: IC50 HDAC8; Table 3
Measurement Kind: IC50 (nM)

[[record]]
item_smiles = "Cc1nc(N(C)c2ccc(OCC(=O)NO)cc2)c2ccccc2n1"
system_tested = "HDAC8 (Homo sapiens, UniProt Q9BY41)"
endpoint_result = 1180

[[record]]
item_smiles = "CN(c1ccc(OCCCCC(=O)NO)cc1)c1ncnc2ccccc12"
system_tested = "HDAC8 (Homo sapiens, UniProt Q9BY41)"
endpoint_result = 1330

[[record]]
item_smiles = "Cc1nc(N(C)c2ccc(OCCCC(=O)NO)cc2)c2ccccc2n1"
system_tested = "HDAC8 (Homo sapiens, UniProt Q9BY41)"
endpoint_result = 1460


[P] CN(c1ccc(OCCCCCC(=O)NO)cc1)c1ncnc2ccccc12
[Q] Cc1nc(N(C)c2ccc(OCCCCC(=O)NO)cc2)c2ccccc2n1
Prompt: I'd appreciate it if you could identify which of P and Q has the greater IC50. Use the label to indicate which entry you chose.
Completion: Q

[A] CN(c1ccc(OCCCC(=O)NO)cc1)c1ncnc2ccccc12
[B] Cc1nc(N(C)c2ccc(OCCCCCC(=O)NO)cc2)c2ccccc2n1
Prompt: Compare IC50: is it lower for A or for B ? Use the label to indicate which entry you chose.
Completion: B
